Counter-ions that a name gives are not always drawn.
Value Kind: melting point

Tell me its melting point given COC(=O)c1cccc(CSC(=N)N)c1-c1c(CSC(=N)N)cccc1C(=O)OC (as salt: hydrobromid) [Example 2.24, dihydrobromide] as the entry.
222 to 225 °C

Provide only the value of recorded melting point for N=C(N)SCc1cc(F)ccc1Oc1ccc([N+](=O)[O-])cc1CSC(=N)N (as salt: hydrobromid) [Example 2.14, dihydrobromide]
> 220 °C

Identify measured melting point corresponding to N=C(N)SCc1ccccc1Oc1ccc(F)cc1CSC(=N)N (as salt: hydrobromid) [Example 2.21, dihydrobromide]
> 220 °C

Please indicate melting point recorded for N=C(N)SCc1cc([N+](=O)[O-])ccc1Oc1cc(Cl)ccc1CSC(=N)N (as salt: hydrobromid) [Example 2.19, dihydrobromide]
> 220 °C

Give me measured melting point, please, for this molecule: NC(N)=NC(=O)c1ccccc1Sc1ccccc1C(=O)N=C(N)N
> 220 °C

Check the records and state melting point for N#CN=C(N)CCCc1ccccc1Sc1ccccc1CCCC(N)=NC#N
155 to 157 °C

In one line, give reported melting point of the entry N=C(N)SCc1cc(F)ccc1Oc1ccc(Cl)cc1CSC(=N)N (as salt: hydrobromid) [Example 2.11, dihydrobromide] .
> 230 °C
